Molecular target: EED (Homo sapiens)
Construct: 2×10^5 Hela cells were injected into a 12-well plate; endogenous in cells; host or cells: HeLa
Test: EED Proteolytic Activity Evaluation 2 (western blot, Hela cells)
Assay type: cell-based
Settings: 1 nM, 10 nM, 100 nM and 1000 nM, 20 hours of treatment
recorded.metric: EED degradation rate (Maximum EED degradation rate)

[
  {
    "compound": "Cc1cccc(F)c1CN1C[C@H](c2ccc(N3CCN(C(=O)CC4CCN(C(=O)CNc5ccc6c(c5)C(=O)N(C5CCC(=O)NC5=O)C6=O)CC4)CC3)cc2)[C@@H](N(C)C)C1 (some centres unmarked) [Example 146]",
    "endpoint.value": "A (A: >50%)"
  },
  {
    "compound": "Cc1cccc(F)c1CN1C[C@H](c2ccc(N3CCN(CCC4CCN(c5ccc6c(c5)C(=O)N(C5CCC(=O)NC5=O)C6=O)CC4)CC3)cc2)[C@@H](N(C)C)C1 (some centres unmarked) [Example 154]",
    "endpoint.value": "A (A: >50%)"
  },
  {
    "compound": "Cc1cccc(F)c1CN1C[C@H](c2ccc(N3CCN(CCC4CCN(C(=O)CNc5ccc6c(c5)C(=O)N(C5CCC(=O)NC5=O)C6=O)CC4)CC3)cc2)[C@@H](N(C)C)C1 (some centres unmarked) [Example 136]",
    "endpoint.value": "A (A: >50%)"
  }
]

====

Target: EED (Homo sapiens, UniProt O75530)
Construct: 2×10^5 Hela cells were injected into a 12-well plate; endogenous in cells; host or cells: HeLa
Sequence (O75530 whole entry): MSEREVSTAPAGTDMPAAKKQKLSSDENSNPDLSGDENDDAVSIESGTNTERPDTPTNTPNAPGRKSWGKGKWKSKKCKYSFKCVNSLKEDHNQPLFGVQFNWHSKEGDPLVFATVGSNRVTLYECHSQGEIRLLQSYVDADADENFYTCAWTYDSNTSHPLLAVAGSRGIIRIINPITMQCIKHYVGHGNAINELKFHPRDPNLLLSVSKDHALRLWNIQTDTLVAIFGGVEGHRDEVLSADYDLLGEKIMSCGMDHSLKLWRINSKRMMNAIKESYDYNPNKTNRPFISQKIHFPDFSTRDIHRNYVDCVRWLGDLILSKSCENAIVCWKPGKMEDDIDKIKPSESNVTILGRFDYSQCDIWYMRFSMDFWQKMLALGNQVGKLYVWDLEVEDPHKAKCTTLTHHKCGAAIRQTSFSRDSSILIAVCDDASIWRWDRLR
Assay: EED Proteolytic Activity Evaluation 2 (western blot, Hela cells)
Assay type: cell-based
Details: 1 nM, 10 nM, 100 nM and 1000 nM, 20 hours of treatment
recorded.metric: EED degradation rate (Maximum EED degradation rate)

[
  {
    "compound": "Cc1cccc(F)c1CN1C[C@H](c2ccc(N3CCN(CCC4CCN(C(=O)COc5cccc6c5C(=O)N(C5CCC(=O)NC5=O)C6=O)CC4)CC3)cc2)[C@@H](N(C)C)C1 (some centres unmarked)",
    "target.desc": "EED (Homo sapiens, UniProt O75530)",
    "endpoint.value": "A (A: >50%)"
  },
  {
    "compound": "Cc1cccc(F)c1CN1C[C@H](c2ccc(N3CCN(CC4CCN(c5cccc6c5C(=O)N(C5CCC(=O)NC5=O)C6=O)CC4)CC3)cc2)[C@@H](N(C)C)C1 (some centres unmarked)",
    "target.desc": "EED (Homo sapiens, UniProt O75530)",
    "endpoint.value": "C (C: <25%)"
  },
  {
    "compound": "Cc1cccc(F)c1CN1C[C@H](c2ccc(N3CCN(C(=O)CCC4CCN(C(=O)COc5cccc6c5C(=O)N(C5CCC(=O)NC5=O)C6=O)CC4)CC3)cc2)[C@@H](N(C)C)C1 (some centres unmarked)",
    "target.desc": "EED (Homo sapiens, UniProt O75530)",
    "endpoint.value": "A (A: >50%)"
  },
  {
    "compound": "Cc1cccc(F)c1CN1C[C@H](c2ccc(N3CCN(CCOCCOCCOCCNC(=O)CNc4ccc5c(c4)C(=O)N(C4CCC(=O)NC4=O)C5=O)CC3)cc2)[C@@H](N(C)C)C1 (some centres unmarked)",
    "target.desc": "EED (Homo sapiens, UniProt O75530)",
    "endpoint.value": "B (B: 25-50%)"
  },
  {
    "compound": "Cc1cccc(F)c1CN1C[C@H](c2ccc(N3CCN(C(=O)CCCNc4cccc5c4C(=O)N(C4CCC(=O)NC4=O)C5=O)CC3)cc2)[C@@H](N(C)C)C1 (some centres unmarked)",
    "target.desc": "EED (Homo sapiens, UniProt O75530)",
    "endpoint.value": "B (B: 25-50%)"
  },
  {
    "compound": "Cc1cccc(F)c1CN1C[C@H](c2ccc(N3CCN(C(=O)CC4CCN(c5ccc6c(c5)C(=O)N(C5CCC(=O)NC5=O)C6=O)CC4)CC3)cc2)[C@@H](N(C)C)C1 (some centres unmarked)",
    "target.desc": "EED (Homo sapiens, UniProt O75530)",
    "endpoint.value": "A (A: >50%)"
  },
  {
    "compound": "O=C(CNc1ccc2c(c1)C(=O)N(C1CCC(=O)NC1=O)C2=O)NCCOCCOCCN1CCC(n2cc(-c3cnc(NCc4ccco4)n4cnnc34)cn2)CC1 (centres unmarked)",
    "target.desc": "EED (Homo sapiens, UniProt O75530)",
    "endpoint.value": "C (C: <25%)"
  },
  {
    "compound": "Cc1cccc(F)c1CN1C[C@H](c2ccc(N3CCN(C(=O)COCCOCCOCCNC(=O)CNc4ccc5c(c4)C(=O)N(C4CCC(=O)NC4=O)C5=O)CC3)cc2)[C@@H](N(C)C)C1 (some centres unmarked)",
    "target.desc": "EED (Homo sapiens, UniProt O75530)",
    "endpoint.value": "A (A: >50%)"
  }
]

EED degradation rate (Maximum EED degradation rate) reading for Cc1cccc(F)c1CN1C[C@H](c2ccc(N3CCN(C(=O)CCCNc4ccc5c(c4)C(=O)N(C4CCC(=O)NC4=O)C5=O)CC3)cc2)[C@@H](N(C)C)C1 (some centres unmarked) : B (B: 25-50%)

EED degradation rate (Maximum EED degradation rate) reading for Cc1cccc(F)c1CN1C[C@H](c2ccc(N3CCN(C(=O)CCCCCNc4ccc5c(c4)C(=O)N(C4CCC(=O)NC4=O)C5=O)CC3)cc2)[C@@H](N(C)C)C1 (some centres unmarked) : B (B: 25-50%)

EED degradation rate (Maximum EED degradation rate) reading for Cc1cccc(F)c1CN1C[C@H](c2ccc(N3CCN(C(=O)COCCOCCNC(=O)CNc4ccc5c(c4)C(=O)N(C4CCC(=O)NC4=O)C5=O)CC3)cc2)[C@@H](N(C)C)C1 (some centres unmarked) : A (A: >50%)

====

Target: EED (Homo sapiens, UniProt O75530)
Construct: 2×10^5 Hela cells were injected into a 12-well plate; endogenous in cells; host or cells: HeLa
Experiment: EED Proteolytic Activity Evaluation 2 (western blot, Hela cells)
Assay type: cell-based
Details: 1 nM, 10 nM, 100 nM and 1000 nM, 20 hours of treatment
recorded.metric: EED degradation rate (Maximum EED degradation rate)

Example entries and their recorded answers appear below.
[
  {
    "compound": "Cc1cccc(F)c1CN1C[C@H](c2ccc(N3CCN(C(=O)CCC4CCN(C(=O)CNc5ccc6c(c5)C(=O)N(C5CCC(=O)NC5=O)C6=O)CC4)CC3)cc2)[C@@H](N(C)C)C1 (some centres unmarked)",
    "endpoint.value": "A (A: >50%)"
  },
  {
    "compound": "O=C1CCC(n2nnc3ccc(NCC(=O)N4CCC(CN5CCC(n6cc(-c7cnc(NCc8ccco8)n8cnnc78)cn6)CC5)CC4)cc3c2=O)C(=O)N1 (centres unmarked)",
    "endpoint.value": "C (C: <25%)"
  },
  {
    "compound": "Cc1cccc(F)c1CN1C[C@H](c2ccc(N3CCN(C(=O)CCC4CCN(C(=O)CNc5cccc6c5C(=O)N(C5CCC(=O)NC5=O)C6=O)CC4)CC3)cc2)[C@@H](N(C)C)C1 (some centres unmarked)",
    "endpoint.value": "B (B: 25-50%)"
  },
  {
    "compound": "Cc1cccc(F)c1CN1C[C@H](c2ccc(N3CCN(CC4CCN(c5ccc6c(c5)C(=O)N(C5CCC(=O)NC5=O)C6=O)CC4)CC3)cc2)[C@@H](N(C)C)C1 (some centres unmarked)",
    "endpoint.value": "A (A: >50%)"
  },
  {
    "compound": "Cc1cccc(F)c1CN1C[C@H](c2ccc(N3CCN(CCC4CCN(c5cccc6c5C(=O)N(C5CCC(=O)NC5=O)C6=O)CC4)CC3)cc2)[C@@H](N(C)C)C1 (some centres unmarked)",
    "endpoint.value": "A (A: >50%)"
  },
  {
    "compound": "Cc1cccc(F)c1CN1C[C@H](c2ccc(N3CCN(CCC4CCN(C(=O)CNc5cccc6c5C(=O)N(C5CCC(=O)NC5=O)C6=O)CC4)CC3)cc2)[C@@H](N(C)C)C1 (some centres unmarked)",
    "endpoint.value": "A (A: >50%)"
  },
  {
    "compound": "Cc1cccc(F)c1CN1C[C@H](c2ccc(N3CCN(C(=O)CC4CCN(C(=O)CNc5cccc6c5C(=O)N(C5CCC(=O)NC5=O)C6=O)CC4)CC3)cc2)[C@@H](N(C)C)C1 (some centres unmarked)",
    "endpoint.value": "A (A: >50%)"
  },
  {
    "compound": "Cc1cccc(F)c1CN1C[C@H](c2ccc(N3CCN(C(=O)CCCCCCCNc4cccc5c4C(=O)N(C4CCC(=O)NC4=O)C5=O)CC3)cc2)[C@@H](N(C)C)C1 (some centres unmarked)",
    "endpoint.value": "A (A: >50%)"
  },
  {
    "compound": "O=C1CCC(N2C(=O)c3ccc(NCC(=O)N4CCC(CN5CCC(n6cc(-c7cnc(NCc8ccco8)n8cnnc78)cn6)CC5)CC4)cc3C2=O)C(=O)N1 (centres unmarked)",
    "endpoint.value": "C (C: <25%)"
  },
  {
    "compound": "Cc1cccc(F)c1CN1C[C@H](c2ccc(N3CCN(C(=O)CC4CCN(C(=O)COc5ccc6c(c5)C(=O)N(C5CCC(=O)NC5=O)C6=O)CC4)CC3)cc2)[C@@H](N(C)C)C1 (some centres unmarked)",
    "endpoint.value": "B (B: 25-50%)"
  }
]

EED degradation rate (Maximum EED degradation rate) reading for Cc1cccc(F)c1CN1C[C@H](c2ccc(N3CCN(C(=O)CC4CCN(c5cccc6c5C(=O)N(C5CCC(=O)NC5=O)C6=O)CC4)CC3)cc2)[C@@H](N(C)C)C1 (some centres unmarked) : C (C: <25%)

EED degradation rate (Maximum EED degradation rate) reading for Cc1cccc(F)c1CN1C[C@H](c2ccc(N3CCN(CC4CCN(CC5CCN(c6ccc7c(c6)C(=O)N(C6CCC(=O)NC6=O)C7=O)CC5)CC4)CC3)cc2)[C@@H](N(C)C)C1 (some centres unmarked) : B (B: 25-50%)
